# assay-system: vasopressin V1 receptor (rat liver plasma membranes) (Rattus norvegicus)
# Sequence (P30560 whole entry): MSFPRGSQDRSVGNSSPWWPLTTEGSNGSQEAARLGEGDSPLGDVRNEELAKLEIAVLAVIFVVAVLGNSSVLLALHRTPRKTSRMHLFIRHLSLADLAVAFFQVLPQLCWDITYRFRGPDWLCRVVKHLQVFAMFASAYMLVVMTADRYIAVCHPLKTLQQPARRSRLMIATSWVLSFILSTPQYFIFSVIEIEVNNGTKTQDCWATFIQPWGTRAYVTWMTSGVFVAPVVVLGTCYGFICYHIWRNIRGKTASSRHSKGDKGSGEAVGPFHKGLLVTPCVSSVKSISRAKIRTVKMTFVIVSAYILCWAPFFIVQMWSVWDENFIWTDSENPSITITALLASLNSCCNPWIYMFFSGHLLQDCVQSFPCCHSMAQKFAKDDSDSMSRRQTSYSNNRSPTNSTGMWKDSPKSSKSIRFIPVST
# protocol-notes: Binding Assay to Rat Hepatic V1 Receptors
# experimental-conditions: rat hepatic V1
Please note: IC50 exactly at 80 nM is N. Only values below 80 nM get Y.

compound: O=C(Nc1ccc(C(=O)N2Cc3ccccc3Cc3ccccc32)cc1)c1ccccc1Cl [Example 14]
category: Y

compound: O=C(Nc1ccc(C(=O)N2Cc3ccccc3Cc3ccccc32)cc1)c1ccccc1OC(F)(F)F [Example 25]
category: Y

compound: Cc1ccc(F)cc1C(=O)Nc1ccc(C(=O)N2CCc3c[nH]nc3-c3ccccc32)c(Cl)c1 [Example 581]
category: N

compound: Cc1c(F)cccc1C(=O)Nc1ccc(C(=O)N2CCc3c[nH]nc3-c3ccccc32)c(Cl)c1 [Example 582]
category: N

compound: O=C(Nc1ccc(C(=O)N2Cc3ccccc3Cc3ccccc32)c(Cl)c1)c1ccc(Cl)cc1Cl [Example 256]
category: N

compound: O=C(Nc1ccc(C(=O)N2Cc3ccccc3Cc3ccccc32)cc1)c1c(Cl)cccc1Cl [Example 252]
category: N

compound: O=C(Nc1ccc(C(=O)N2Cc3ccccc3Cc3cc(Cl)ccc32)cc1)c1ccc(Cl)cc1Cl [Example 137]
category: Y

compound: Cc1ccccc1C(=O)N(C)c1ccc(C(=O)N2Cc3ccccc3Cc3ccccc32)cc1 [Example 167]
category: N

====

# assay-system: vasopressin V1 receptor (rat liver plasma membranes) (Rattus norvegicus)
# protocol-notes: Binding Assay to Rat Hepatic V1 Receptors
# experimental-conditions: rat hepatic V1
Please note: IC50 exactly at 200 nM is Condition not met. Only values below 200 nM get Condition met.

compound: O=C(Nc1ccc(C(=O)N2Cc3ccccc3Cc3ccccc32)cc1)c1ccc(Cl)cc1Cl [Example 10]
category: Condition met
--
compound: O=C(Nc1ccc(C(=O)N2Cc3ccccc3Cc3ccccc32)cc1)c1ccccc1 [Example 24]
category: Condition met
--
compound: O=C(Nc1ccc(C(=O)N2CCc3c[nH]nc3-c3ccccc32)cc1)c1ccc(Cl)cc1Cl [Example 583]
category: Condition met
--
compound: Cc1ccc(F)cc1C(=O)Nc1ccc(C(=O)N2CCc3c[nH]nc3-c3ccccc32)cc1 [Example 584]
category: Condition met
--
compound: O=C(Nc1ccc(C(=O)N2Cc3ccccc3-c3ccccc32)cc1)c1c(Cl)cccc1Cl [Example 7]
category: Condition not met
--
compound: O=C(Nc1ccc(C(=O)N2Cc3ccccc3Cc3ccccc32)cc1)c1ccc(F)cc1F [Example 21]
category: Condition not met
--
compound: Cc1ccccc1C(=O)Nc1ccc(C(=O)N2CCc3ccccc3-c3ccccc32)cc1 [Example 92]
category: Condition met
--
compound: O=C(Nc1ccc(C(=O)N2Cc3ccccc3-c3ccccc32)cc1)c1ccc(Cl)c(Cl)c1 [Example 8]
category: Condition not met
--
compound: CSc1ccccc1C(=O)Nc1ccc(C(=O)N2Cc3ccccc3Cc3ccccc32)cc1 [Example 61]
category: Condition met
--
compound: Cc1occc1C(=O)Nc1ccc(C(=O)N2Cc3ccccc3Cc3ccccc32)cc1 [Example 119]
category: Condition met
--
compound: Cc1ccccc1C(=O)Nc1ccc(C(=O)N2Cc3ccccc3Cc3cc(Cl)ccc32)cc1 [Example 136]
category: Condition met
--
compound: Cc1ccc(C)c(C(=O)Nc2ccc(C(=O)N3Cc4ccccc4Cc4ccccc43)cc2)c1 [Example 12]
category: Condition not met
--
compound: O=C(Nc1ccc(C(=O)N2Cc3ccccc3Cc3ccccc32)cc1)C1CC=CCC1 (centres unmarked) [Example 255]
category: Condition met
--
compound: O=C(Nc1ccc(C(=O)N2Cc3ccccc3Sc3ccccc32)cc1)c1ccc(Cl)cc1Cl [Example 449]
category: Condition not met
--
compound: O=C(Cc1ccccc1Cl)Nc1ccc(C(=O)N2Cc3ccccc3Cc3ccccc32)cc1 [Example 16]
category: Condition met
--
compound: Cc1cccc(C(=O)Nc2ccc(C(=O)N3Cc4ccccc4Cc4cc(Cl)ccc43)cc2)c1C [Example 138]
category: Condition met
--
compound: Cc1ncc2c(n1)-c1ccccc1N(C(=O)c1ccc(NC(=O)c3ccccc3C)cc1)CC2 [Example 416]
category: Condition not met
